Every entry's value here was drawn from patent US8815857B2.

Target: Recombinant human soluble guanylate cyclase (sGC), alpha 1 / beta 1 subunits, heme-free (Homo sapiens, UniProt Q02108+Q02153)
Construct: histidine tag (C); made in house; host or cells: Sf9 insect cells (baculovirus coinfection)
Sequence (Q02108 whole entry partner): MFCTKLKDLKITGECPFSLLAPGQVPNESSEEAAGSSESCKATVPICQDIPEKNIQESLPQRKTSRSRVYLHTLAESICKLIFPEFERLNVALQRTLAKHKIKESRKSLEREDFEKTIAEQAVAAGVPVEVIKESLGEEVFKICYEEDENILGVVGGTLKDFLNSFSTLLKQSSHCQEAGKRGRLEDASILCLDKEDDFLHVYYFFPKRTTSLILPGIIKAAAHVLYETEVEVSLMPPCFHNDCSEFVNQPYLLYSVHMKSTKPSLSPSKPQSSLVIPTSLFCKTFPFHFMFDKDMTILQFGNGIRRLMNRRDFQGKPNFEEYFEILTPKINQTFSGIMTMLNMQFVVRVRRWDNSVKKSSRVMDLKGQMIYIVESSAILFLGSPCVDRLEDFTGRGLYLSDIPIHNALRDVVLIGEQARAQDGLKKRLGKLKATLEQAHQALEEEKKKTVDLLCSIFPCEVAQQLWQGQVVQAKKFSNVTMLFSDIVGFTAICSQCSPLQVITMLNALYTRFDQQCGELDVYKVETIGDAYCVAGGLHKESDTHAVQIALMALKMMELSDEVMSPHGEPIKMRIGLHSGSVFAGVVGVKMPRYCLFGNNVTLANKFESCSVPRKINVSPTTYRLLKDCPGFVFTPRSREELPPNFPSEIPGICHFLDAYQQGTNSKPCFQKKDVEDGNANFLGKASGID
Sequence (Q02153 whole entry): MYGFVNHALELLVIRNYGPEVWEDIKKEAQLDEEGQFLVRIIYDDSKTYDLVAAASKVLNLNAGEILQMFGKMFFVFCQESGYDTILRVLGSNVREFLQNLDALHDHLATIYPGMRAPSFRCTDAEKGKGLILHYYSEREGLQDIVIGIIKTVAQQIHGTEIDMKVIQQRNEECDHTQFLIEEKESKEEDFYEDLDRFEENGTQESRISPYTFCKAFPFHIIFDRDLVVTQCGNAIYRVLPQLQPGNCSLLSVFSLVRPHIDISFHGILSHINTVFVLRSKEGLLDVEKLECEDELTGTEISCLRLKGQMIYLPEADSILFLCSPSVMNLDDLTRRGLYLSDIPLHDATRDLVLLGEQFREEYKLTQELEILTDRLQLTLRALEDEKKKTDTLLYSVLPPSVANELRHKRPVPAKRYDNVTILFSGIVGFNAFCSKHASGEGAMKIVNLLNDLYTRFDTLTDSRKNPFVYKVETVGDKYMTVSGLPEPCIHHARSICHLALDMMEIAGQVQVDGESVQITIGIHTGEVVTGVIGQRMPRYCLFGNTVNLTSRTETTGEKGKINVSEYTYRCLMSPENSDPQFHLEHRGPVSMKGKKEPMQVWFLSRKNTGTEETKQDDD
Experiment: Molecular assay: cGMP formation by heme-free recombinant sGC (CisBio cGMP detection kit)
Type: biochemical
Settings: 300 pM heme-free sGC, 37° C., 60 min, cGMP readout; read-out: EC50 nM, Activity of Compounds in Molecular Assay
Listed here are molecules together with their documented EC50.
Report the value in nM with no unit label.

As a guide, the following entries are already answered.
[[record]]
molecule = "Cc1cc(C(=O)N2CCCCC2)ccc1COc1ccc(F)cc1-c1csc(N2CCC(C(=O)O)C(C(F)(F)F)C2)n1 (centres unmarked)"
readout_unit = "nM"
value = 650

[[record]]
molecule = "Cc1ccc(OCc2ccc(C(=O)N3CCCC3)cc2C)c(-c2csc(N3CCC(C(=O)O)CC3)n2)c1"
readout_unit = "nM"
value = 120


Query: Entry Cc1cc(C(=O)N2CCCCC2)ccc1COc1ccccc1-c1csc(N2CCC(C(=O)O)CC2C(F)(F)F)n1 (centres unmarked) has what EC50?
Response: 30

Query: Entry Cc1ccc(OCc2ccc(CN3CCOCC3)cc2C)c(-c2csc(NCCC(=O)O)n2)c1 has what EC50?
Response: 1300

Query: Entry Cc1cc(C(=O)N2CCCCC2)ccc1COc1ccc(F)cc1-c1csc(N2CC3C(C2)C3C(=O)O)n1 (centres unmarked) has what EC50?
Response: 360

Query: Entry Cc1cccc(-c2csc(N3CCC(C(=O)O)CC3)n2)c1OCc1ccc(CN2CCOCC2)cc1C#N has what EC50?
Response: 140

Query: Entry Cc1cc(CN2CCOCC2)ccc1COc1ccc(Cl)cc1-c1csc(N2CC3CCC(C2)C3C(=O)O)n1 (centres unmarked) has what EC50?
Response: 690

Query: Entry Cc1ccc(OCc2ccc(CN3CCOCC3)cc2C)c(-c2csc(N3CCCC(C(=O)O)CC3)n2)c1 (centres unmarked) has what EC50?
Response: 39

Query: Entry Cc1ccc(OCc2ccc(CN3CCS(=O)(=O)CC3)cc2C)c(-c2csc(N3CCC(CC(=O)O)CC3)n2)c1 has what EC50?
Response: 1000

Query: Entry Cc1ccc(OCc2ccc(C(=O)N3CCCCC3)cc2C)c(-c2csc(N3C[C@H]4CC[C@@H](C3)[C@@]4(C)C(=O)O)n2)c1 has what EC50?
Response: 22

Query: Entry Cc1ccc(OCc2ccc(C(=O)N3CCCCC3)cc2C)c(-c2csc(N3C4CCC3CC(C(=O)O)C4)n2)c1 (centres unmarked) has what EC50?
Response: 15

Query: Entry Cc1ccc(OCc2ccc(CN3CCOCC3)cc2C)c(-c2csc(N3CC4CCC(C3)C4C(=O)O)n2)c1 (centres unmarked) has what EC50?
Response: 27
